These measurements were taken from paper PMC8699473.

Test: Short-term stability in spiked pooled human plasma (bench-top, 4 °C, 56 °C)
Conditions: validation standard MOV
observed_property: Short-time stability (24h, RT, with daylight) Accuracy [%] (%)
Just the number please, in %, no unit attached.

In plain terms, COc1cc2ncnc(Nc3ccc(F)c(Cl)c3)c2cc1NC(=O)/C=C/CN1CCCCC1 has a documented Short-time stability (24h, RT, with daylight) Accuracy [%] of 89.8

For reference, reported Short-time stability (24h, RT, with daylight) Accuracy [%] for CCN1CCN(Cc2ccc(Nc3ncc(F)c(-c4cc(F)c5nc(C)n(C(C)C)c5c4)n3)nc2)CC1 stands at 90.3

Recorded Short-time stability (24h, RT, with daylight) Accuracy [%] (compound CNC(=O)c1cc(Oc2ccc(NC(=O)Nc3ccc(Cl)c(C(F)(F)F)c3)c(F)c2)ccn1 ): 90.2

Quick note, Short-time stability (24h, RT, with daylight) Accuracy [%] for COc1cc2nccc(Oc3ccc(NC(=O)Nc4cc(C)on4)c(Cl)c3)c2cc1OC landed at 103.5

Entry under test: COc1cc2ncnc(Nc3ccc(F)c(Cl)c3)c2cc1OCCCN1CCOCC1 . Its Short-time stability (24h, RT, with daylight) Accuracy [%] was 96.2

Noted for COC(=O)N[C@@H](C)CNc1nccc(-c2cn(C(C)C)nc2-c2cc(Cl)cc(NS(C)(=O)=O)c2F)n1 : its Short-time stability (24h, RT, with daylight) Accuracy [%] reads 105.9

response.value for CN(C)C(=O)c1cc2cnc(Nc3ccc(N4CCNCC4)cn3)nc2n1C1CCCC1 (field: Short-time stability (24h, RT, with daylight) Accuracy [%]) = 95.0

Reported Short-time stability (24h, RT, with daylight) Accuracy [%] of O=C(c1ccc(F)c(F)c1Nc1ccc(I)cc1F)N1CC(O)([C@@H]2CCCCN2)C1 : 102.4

Item: NC(=O)c1cccc2cn(-c3ccc([C@@H]4CCCNC4)cc3)nc12 | Short-time stability (24h, RT, with daylight) Accuracy [%]: 97.6

Entry CS(=O)(=O)CCNCc1ccc(-c2ccc3ncnc(Nc4ccc(OCc5cccc(F)c5)c(Cl)c4)c3c2)o1 , Short-time stability (24h, RT, with daylight) Accuracy [%] reported as 93.5

Short-time stability (24h, RT, with daylight) Accuracy [%] in this record for O=c1[nH]c(=O)n([C@H]2C[C@H](O)[C@@H](CO)O2)cc1C(F)(F)F : 78.0

Sure, the documented Short-time stability (24h, RT, with daylight) Accuracy [%] for CNC(=O)c1ccc(N2C(=S)N(c3ccc(C#N)c(C(F)(F)F)c3)C(=O)C2(C)C)cc1F [Enzalutamide] is 108.7

For reference, reported Short-time stability (24h, RT, with daylight) Accuracy [%] for CCC1=C[C@@H]2CN(C1)Cc1c([nH]c3ccccc13)[C@@](C(=O)OC)(c1cc3c(cc1OC)N(C)[C@H]1[C@@](O)(C(=O)OC)[C@H](OC(C)=O)[C@]4(CC)C=CCN5CC[C@]31[C@@H]54)C2 stands at 66.8

The reported Short-time stability (24h, RT, with daylight) Accuracy [%] of the compound CS(=O)(=O)c1ccc(C(=O)Nc2ccc(Cl)c(-c3ccccn3)c2)c(Cl)c1 was 111.1

Reported Short-time stability (24h, RT, with daylight) Accuracy [%] of CC(C)(C)c1nc(-c2cccc(NS(=O)(=O)c3c(F)cccc3F)c2F)c(-c2ccnc(N)n2)s1 : 97.7
